test_description: Intrinsic clearance in human liver microsomes at 1 uM after 30 mins by LC-MS/MS analysis
Type: ADME, Microsome
experimental_setup: liver microsomes, read-out: CLH
measure_name: microsomal CLint at 1 µM (µL/min/mg)
Report only the number, with the unit µL/min/mg understood.

Need microsomal CLint at 1 µM, item COC(=O)N[C@H](C(=O)N[C@@H](Cc1ccccc1)[C@@H](O)CN(Cc1ccc(-c2ccccn2)cc1)NC(=O)[C@@H](NC(=O)OC)C(C)(C)C)C(C)(C)C [ATAZANAVIR]
90

* * *

Listing of entries alongside the reported CC50.
System: MT4
test_description: Cytotoxicity against human MT4 cells after 5 days by XTT assay
Type: cell-based
experimental_setup: mt4, 120 h
Report only the number, with the unit µM understood.

Worked cases, answers included:
>  <structure_string>
COC(=O)N[C@H](C(=O)NN(CCC[C@@]1(Cc2ccccc2)C(=O)N([C@H]2c3ccccc3C[C@H]2O)C[C@H]1O)Cc1ccc(-c2cccnc2)cc1)C(C)(C)C

>  <measure_name>
CC50

>  <readout_number>
23

$$$$
>  <structure_string>
COC(=O)N[C@H](C(=O)NN(CCC[C@@]1(Cc2ccccc2)C(=O)N([C@H]2c3ccccc3C[C@H]2O)C[C@H]1O)Cc1ccc(-c2ccccc2)cc1)C(C)(C)C

>  <measure_name>
CC50

>  <readout_number>
15

$$$$

# context switch: different compound, same CC50
Item: COC(=O)N[C@H](C(=O)NN(CCC[C@@]1(Cc2ccccc2)C(=O)N([C@H]2c3ccccc3C[C@H]2O)C[C@H]1O)Cc1ccc(-c2ccncc2)cc1)C(C)(C)C Test system: MT4 Read-out: CC50 Value: ?
5.9

* * *

Listing of entries alongside the reported EC50.
Tested on: Human immunodeficiency virus 1
test_description: Antiviral activity against HIV1 infected in human MT4 cells
Assay type: functional, organism-based
experimental_setup: Human immunodeficiency virus 1, MT4
Report only the number, with the unit nM understood.

Worked cases, answers included:
>  <structure_string>
COC(=O)N[C@H](C(=O)NN(CC[C@@]1(Cc2ccccc2)C(=O)N([C@H]2c3ccccc3C[C@H]2O)C[C@@H]1O)Cc1ccc(-c2ccccn2)cc1)C(C)(C)C

>  <EC50 (nM)>
180

$$$$
>  <structure_string>
COC(=O)N[C@H](C(=O)NN(CC[C@@]1(Cc2ccccc2)C(=O)N([C@H]2c3ccccc3C[C@H]2O)C[C@H]1O)Cc1ccc(-c2ccncc2)cc1)C(C)(C)C

>  <EC50 (nM)>
40

$$$$

Need EC50, item COC(=O)N[C@H](C(=O)NN(CC[C@@]1(Cc2ccccc2)C(=O)N([C@H]2c3ccccc3C[C@H]2O)C[C@H]1O)Cc1ccc(Br)cc1)C(C)(C)C
640

Need EC50, item COC(=O)N[C@H](C(=O)NN(CC[C@@]1(Cc2ccccc2)C(=O)N([C@H]2c3ccccc3C[C@H]2O)C[C@H]1O)Cc1ccc(-c2cccnc2)cc1)C(C)(C)C
40

* * *

System: Caco-2
test_description: Apparent permeability from apical to basolateral side in human Caco2 cells after 60 mins
Assay type: ADME, cell-based
experimental_setup: caco-2, 1 h
Listing of entries alongside the reported Papp.
Report only the number, with the unit ×10⁻⁶ cm/s understood.

Worked cases, answers included:
>  <structure_string>
COC(=O)N[C@H](C(=O)NN(CC[C@@]1(Cc2ccccc2)C(=O)N([C@H]2c3ccccc3C[C@H]2O)C[C@@H]1O)Cc1ccc(Br)cc1)C(C)(C)C

>  <readout_number>
17

$$$$
>  <structure_string>
COC(=O)N[C@H](C(=O)NN(CCC[C@@]1(Cc2ccccc2)C(=O)N([C@H]2c3ccccc3C[C@H]2O)C[C@H]1O)Cc1ccc(-c2cccnc2)cc1)C(C)(C)C

>  <readout_number>
4.4

$$$$
>  <structure_string>
COC(=O)N[C@H](C(=O)NN(CCC[C@@]1(Cc2ccccc2)C(=O)N([C@H]2c3ccccc3C[C@H]2O)C[C@H]1O)Cc1ccc(Br)cc1)C(C)(C)C

>  <readout_number>
22

$$$$
>  <structure_string>
COC(=O)N[C@H](C(=O)NN(CC[C@@]1(Cc2ccccc2)C(=O)N([C@H]2c3ccccc3C[C@H]2O)C[C@@H]1O)Cc1ccc(-c2cccnc2)cc1)C(C)(C)C

>  <readout_number>
5.1

$$$$
>  <structure_string>
COC(=O)N[C@H](C(=O)NN(CC[C@@]1(Cc2ccccc2)C(=O)N([C@H]2c3ccccc3C[C@H]2O)C[C@H]1O)Cc1ccc(-c2cccnc2)cc1)C(C)(C)C

>  <readout_number>
3.8

$$$$

# context switch: different compound, same Papp
Need Papp, item COC(=O)N[C@H](C(=O)NN(CCC[C@@]1(Cc2ccccc2)C(=O)N([C@H]2c3ccccc3C[C@H]2O)C[C@H]1O)Cc1ccc(-c2ccccn2)cc1)C(C)(C)C
3.4

* * *

Tested on: Liver microsomes
test_description: Intrinsic clearance in human liver microsomes at 1 uM after 30 mins by LC-MS/MS analysis
Format: ADME, Microsome
experimental_setup: microsomes, 0.5 h, 1 µM
measure_name: CLH
Report the figure along with its unit, number first.

>  <structure_string>
COC(=O)N[C@H](C(=O)NN(CC[C@@]1(Cc2ccccc2)C(=O)N([C@H]2c3ccccc3C[C@H]2O)C[C@H]1O)Cc1ccc(-c2cccnc2)cc1)C(C)(C)C

>  <measure_name>
CLH

>  <result>
230 µL/min/mg

$$$$
>  <structure_string>
COC(=O)N[C@H](C(=O)NN(CCC[C@@]1(Cc2ccccc2)C(=O)N([C@H]2c3ccccc3C[C@H]2O)C[C@H]1O)Cc1ccc(-c2ccccn2)cc1)C(C)(C)C

>  <measure_name>
CLH

>  <result>
130 µL/min/mg

$$$$

Need CLH, item COC(=O)N[C@H](C(=O)NN(CCC[C@@]1(Cc2ccccc2)C(=O)N([C@H]2c3ccccc3C[C@H]2O)C[C@H]1O)Cc1ccc(-c2cccnc2)cc1)C(C)(C)C
122 µL/min/mg

* * *

target_system: Protease (Human immunodeficiency virus 1, UniProt Q9YQ12)
Sequence (Q9YQ12 whole entry): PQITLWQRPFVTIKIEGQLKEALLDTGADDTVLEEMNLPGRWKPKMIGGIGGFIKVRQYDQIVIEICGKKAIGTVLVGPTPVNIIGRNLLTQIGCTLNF
Ki less than 2 nM is T; Ki greater than or equal to 2 nM is F.

>  <compound>
COC(=O)N[C@H](C(=O)NN(CC[C@@]1(Cc2ccccc2)C(=O)N([C@H]2c3ccccc3C[C@H]2O)C[C@H]1O)Cc1ccc(-c2ccccn2)cc1)C(C)(C)C

>  <class_label>
T

$$$$
>  <compound>
COC(=O)N[C@H](C(=O)NN(CC[C@]1(Cc2ccccc2)C(=O)N([C@H]2c3ccccc3C[C@H]2O)C[C@@H]1O)Cc1ccc(Br)cc1)C(C)(C)C

>  <class_label>
F

$$$$
>  <compound>
COC(=O)N[C@H](C(=O)NN(CCC[C@@]1(Cc2ccccc2)C(=O)N([C@H]2c3ccccc3C[C@H]2O)C[C@H]1O)Cc1ccc(-c2ccccn2)cc1)C(C)(C)C

>  <class_label>
F

$$$$
>  <compound>
COC(=O)N[C@H](C(=O)NN(CC[C@@]1(Cc2ccccc2)C(=O)N([C@H]2c3ccccc3C[C@H]2O)C[C@@H]1O)Cc1ccc(-c2cccnc2)cc1)C(C)(C)C

>  <class_label>
T

$$$$
>  <compound>
COC(=O)N[C@H](C(=O)NN(CC[C@@]1(Cc2ccccc2)C(=O)N([C@H]2c3ccccc3C[C@H]2O)C[C@H]1O)Cc1ccc(-c2ccncc2)cc1)C(C)(C)C

>  <class_label>
T

$$$$

Just wondering, is Ki of COC(=O)N[C@H](C(=O)NN(CC[C@@]1(Cc2ccccc2)C(=O)N([C@H]2c3ccccc3C[C@H]2O[Si](C)(C)C(C)(C)C)C[C@H]1O[Si](C)(C)C(C)(C)C)Cc1ccc(Br)cc1)C(C)(C)C below 2 nM?
F

Just wondering, is Ki of COC(=O)N[C@H](C(=O)NN(CCC[C@@]1(Cc2ccccc2)C(=O)N([C@H]2c3ccccc3C[C@H]2O)C[C@H]1O)Cc1ccc(-c2cccnc2)cc1)C(C)(C)C below 2 nM?
F

Just wondering, is Ki of COC(=O)N[C@H](C(=O)NN(CC[C@]1(Cc2ccccc2)C(=O)N([C@H]2c3ccccc3C[C@H]2O)C[C@H]1O)Cc1ccc(Br)cc1)C(C)(C)C below 2 nM?
F

Just wondering, is Ki of COC(=O)N[C@H](C(=O)NN(CC[C@@]1(Cc2ccccc2)C(=O)N([C@H]2c3ccccc3C[C@H]2O)C[C@@H]1O)Cc1ccc(Br)cc1)C(C)(C)C below 2 nM?
F

Just wondering, is Ki of COC(=O)N[C@H](C(=O)NN(CC[C@@]1(Cc2ccccc2)C(=O)N([C@H]2c3ccccc3C[C@H]2O)C[C@H]1O)Cc1ccc(Br)cc1)C(C)(C)C below 2 nM?
F

Just wondering, is Ki of COC(=O)N[C@H](C(=O)NN(CC[C@@]1(Cc2ccccc2)C(=O)N([C@H]2c3ccccc3C[C@H]2O)C[C@H]1O)Cc1ccc(-c2cccnc2)cc1)C(C)(C)C below 2 nM?
T

Just wondering, is Ki of COC(=O)N[C@H](C(=O)NN(CC[C@@]1(Cc2ccccc2)C(=O)N([C@H]2c3ccccc3C[C@H]2O)C[C@@H]1O)Cc1ccc(-c2ccncc2)cc1)C(C)(C)C below 2 nM?
T

Just wondering, is Ki of COC(=O)N[C@H](C(=O)NN(CC[C@@]1(Cc2ccccc2)C(=O)N([C@H]2c3ccccc3C[C@H]2O[Si](C)(C)C(C)(C)C)C[C@@H]1O[Si](C)(C)C(C)(C)C)Cc1ccc(Br)cc1)C(C)(C)C below 2 nM?
F

Just wondering, is Ki of COC(=O)N[C@H](C(=O)NN(CCC1(Cc2ccccc2)C(=O)N([C@H]2c3ccccc3C[C@H]2O)CC1O)Cc1ccc(-c2ccncc2)cc1)C(C)(C)C (some centres not stated) below 2 nM?
T

Just wondering, is Ki of COC(=O)N[C@H](C(=O)NN(CCC[C@@]1(Cc2ccccc2)C(=O)N([C@H]2c3ccccc3C[C@H]2O)C[C@H]1O)Cc1ccc(Br)cc1)C(C)(C)C below 2 nM?
F

Just wondering, is Ki of COC(=O)N[C@H](C(=O)NN(CCC[C@@]1(Cc2ccccc2)C(=O)N([C@H]2c3ccccc3C[C@H]2O)C[C@H]1O)Cc1ccc(-c2ccccc2)cc1)C(C)(C)C below 2 nM?
F
